The measured values listed here are drawn from BindingDB's records for doi:10.1021/jm500853v.

Listing of recorded IC50 by entry.
- SYSTEM NAME: DNA gyrase A/A/B/B tetramer (Escherichia coli (strain K12), UniProt P0AES4+P0AES6)
- EXPERIMENT DESCRIPTION: Inhibition of Escherichia coli DNA gyrase assessed as supercoiled plasmid DNA formation after 30 mins by electrophoretic analysis
Response body: numeric value in µM, unit text excluded.

Below are worked cases with known answers.
- COMPOUND: "CC[C@H](C)C(=O)c1c(O)cc(O)cc1OC/C=C(\\C)CCC=C(C)C [Olympicin A]"
  ENDPOINT UNIT: "µM"
  IC50: 500
- COMPOUND: "CC1(C)C2CC=C(/C=C/C(=O)c3ccc(O)cc3O)C1C2 (stereo not drawn)"
  ENDPOINT UNIT: "µM"
  IC50: 250

Kindly consider the entry below.
Exercise: Need IC50, item `C=CCOc1ccccc1/C=C/C(=O)c1ccc(O)cc1O`
Key: 500
